inhibition at 10 µM values for the compounds below.
tested on: SR; test: NCI one-dose SRB anti-proliferative screen; assay type: cell-based; conditions: Homo sapiens; SR, Leukemia; NCI one dose; read-out: Cell growth inhibition %
Write down the numeric answer in % and omit the unit.

Form field: reported inhibition at 10 µM of `O=C(CSc1nnc(-c2ccc3[nH]c(-c4ccccc4)nc3c2)o1)Nc1ccc(C(=O)/C=C/c2ccccc2)cc1` 0

Cool, now `COc1ccc(/C=C/C(=O)c2ccc(NC(=O)CSc3nnc(-c4ccc5[nH]c(-c6ccc(OC)cc6)nc5c4)o3)cc2)cc1` 40.5

Cool, now `O=C(CSc1nnc(-c2ccc3[nH]c(-c4ccccc4)nc3c2)o1)Nc1ccc(C(=O)/C=C/c2ccc(Cl)cc2)cc1` 3.59

Cool, now `COc1ccc(-c2nc3cc(-c4nnc(SCC(=O)Nc5ccc(C(=O)/C=C/c6cc(OC)c(OC)c(OC)c6)cc5)o4)ccc3[nH]2)cc1` 15.2

---

tested on: SK-MEL-5; assay: NCI one-dose SRB anti-proliferative screen; type: cell-based; details: Homo sapiens; SK-MEL-5 (Melanoma), NCI one dose 10 µM; read-out: Cell growth inhibition %
Classification field: Criterion met = inhibition at 10 µM at or over 4%; Criterion not met = inhibition at 10 µM under 4%.

smiles_str=COc1ccc(/C=C/C(=O)c2ccc(NC(=O)CSc3nnc(-c4ccc5[nH]c(-c6ccc(OC)c(OC)c6)nc5c4)o3)cc2)cc1 assigned_label="Criterion met"
smiles_str=COc1ccc(-c2nc3cc(-c4nnc(SCC(=O)Nc5ccc(C(=O)/C=C/c6ccc(Cl)cc6)cc5)o4)ccc3[nH]2)cc1OC assigned_label="Criterion not met"
smiles_str=COc1cc(-c2nc3cc(-c4nnc(SCC(=O)Nc5ccc(C(=O)/C=C/c6ccc(Cl)cc6)cc5)o4)ccc3[nH]2)cc(OC)c1OC assigned_label="Criterion met"
smiles_str=COc1ccc(/C=C/C(=O)c2ccc(NC(=O)CSc3nnc(-c4ccc5[nH]c(-c6ccc(Cl)cc6)nc5c4)o3)cc2)cc1 assigned_label="Criterion met"
smiles_str=O=C(CSc1nnc(-c2ccc3[nH]c(-c4ccc(Cl)cc4)nc3c2)o1)Nc1ccc(C(=O)/C=C/c2ccccc2)cc1 assigned_label="Criterion not met"

Textbook exercise: given the entry `O=C(CSc1nnc(-c2ccc3[nH]c(-c4ccc(Cl)cc4)nc3c2)o1)Nc1ccc(C(=O)/C=C/c2ccc(Cl)cc2)cc1` , state whether its inhibition at 10 µM is greater than or equal to 4%. Criterion met

Cool, now `COc1cc(-c2nc3cc(-c4nnc(SCC(=O)Nc5ccc(C(=O)/C=C/c6ccccc6)cc5)o4)ccc3[nH]2)cc(OC)c1OC` Criterion met

Cool, now `COc1ccc(-c2nc3cc(-c4nnc(SCC(=O)Nc5ccc(C(=O)/C=C/c6ccccc6)cc5)o4)ccc3[nH]2)cc1OC` Criterion met

---

inhibition at 10 µM values for the compounds below.
test system: CAKI-1; assay: NCI one-dose SRB anti-proliferative screen; type: cell-based; details: Homo sapiens; CAKI-1 (Renal Cancer), NCI one dose 10 µM; read-out: Cell growth inhibition %
Write down the numeric answer in % and omit the unit.

Would you please look over these solved cases?
compound="O=C(CSc1nnc(-c2ccc3[nH]c(-c4ccc(Cl)cc4)nc3c2)o1)Nc1ccc(C(=O)/C=C/c2ccc(Cl)cc2)cc1 [Compound 7g]" endpoint_result=16.4
compound="O=C(CSc1nnc(-c2ccc3[nH]c(-c4ccc(Cl)cc4)nc3c2)o1)Nc1ccc(C(=O)/C=C/c2ccccc2)cc1 [Compound 7f]" endpoint_result=1.83
compound="COc1cc(-c2nc3cc(-c4nnc(SCC(=O)Nc5ccc(C(=O)/C=C/c6ccc(Cl)cc6)cc5)o4)ccc3[nH]2)cc(OC)c1OC [Compound 7v]" endpoint_result=2.81
compound="COc1ccc(/C=C/C(=O)c2ccc(NC(=O)CSc3nnc(-c4ccc5[nH]c(-c6ccc(OC)c(OC)c6)nc5c4)o3)cc2)cc1 [Compound 7r]" endpoint_result=0.08
compound="COc1ccc(/C=C/C(=O)c2ccc(NC(=O)CSc3nnc(-c4ccc5[nH]c(-c6ccc(Cl)cc6)nc5c4)o3)cc2)cc1 [Compound 7h]" endpoint_result=2.63

Form field: reported inhibition at 10 µM of COc1cc(-c2nc3cc(-c4nnc(SCC(=O)Nc5ccc(C(=O)/C=C/c6ccccc6)cc5)o4)ccc3[nH]2)cc(OC)c1OC [Compound 7u] 0

Cool, now COc1ccc(-c2nc3cc(-c4nnc(SCC(=O)Nc5ccc(C(=O)/C=C/c6ccc(Cl)cc6)cc5)o4)ccc3[nH]2)cc1OC [Compound 7q] 0

Cool, now COc1ccc(-c2nc3cc(-c4nnc(SCC(=O)Nc5ccc(C(=O)/C=C/c6ccccc6)cc5)o4)ccc3[nH]2)cc1OC [Compound 7p] 2.96

---

tested on: SNB-19; assay: NCI one-dose SRB anti-proliferative screen; format: cell-based; settings: Homo sapiens; SNB-19 (CNS Cancer), NCI one dose 10 µM; read-out: Cell growth inhibition %
inhibition at 10 µM values for the compounds below.
Write down the numeric answer in % and omit the unit.

Form field: reported inhibition at 10 µM of `O=C(CSc1nnc(-c2ccc3[nH]c(-c4ccc(Cl)cc4)nc3c2)o1)Nc1ccc(C(=O)/C=C/c2ccccc2)cc1` 0

---

test system: CAKI-1; test: NCI one-dose SRB anti-proliferative screen; assay type: cell-based; details: Homo sapiens; CAKI-1, Renal cancer; NCI one dose; read-out: Cell growth inhibition %
inhibition at 10 µM values for the compounds below.
Your answer should be a number followed by the unit of measure.

compound="COc1ccc(/C=C/C(=O)c2ccc(NC(=O)CSc3nnc(-c4ccc5[nH]c(-c6ccccc6)nc5c4)o3)cc2)cc1OC [Compound 7d]" recorded_endpoint="inhibition at 10 µM" endpoint_result=0%
compound="COc1ccc(-c2nc3cc(-c4nnc(SCC(=O)Nc5ccc(C(=O)/C=C/c6ccccc6)cc5)o4)ccc3[nH]2)cc1 [Compound 7k]" recorded_endpoint="inhibition at 10 µM" endpoint_result=14.1%
compound="O=C(CSc1nnc(-c2ccc3[nH]c(-c4ccccc4)nc3c2)o1)Nc1ccc(C(=O)/C=C/c2ccccc2)cc1 [Compound 7a]" recorded_endpoint="inhibition at 10 µM" endpoint_result=0%

# next compound below
Form field: reported inhibition at 10 µM of COc1ccc(/C=C/C(=O)c2ccc(NC(=O)CSc3nnc(-c4ccc5[nH]c(-c6ccc(OC)cc6)nc5c4)o3)cc2)cc1 [Compound 7m] 6.15%

---

System: IGROV1
Test: NCI one-dose SRB anti-proliferative screen
Format: cell-based
Settings: Homo sapiens, IGROV-1; IGROV1 (Ovarian Cancer), NCI one dose 10 µM; read-out: Cell growth inhibition %
Procedure: The twenty-four synthesized compounds were submitted to the National Cancer Institute (NCI), USA. Eighteen hybrids 7a-h, 7k-r, 7u, and 7v were selected by NCI for one-dose assessment of their anti-proliferative activities at 10 µM dose by Sulforhodamine B colorimetric assay. The assessment was performed in 60 cell lines derived from nine tumor subpanels, comprising lung, leukemia, melanoma, colon, renal, CNS, prostate, breast, and ovarian cancer cell lines. […]
Recorded endpoint: inhibition at 10 µM
Your answer should be a number followed by the unit of measure.

Would you please look over these solved cases?
compound="COc1ccc(-c2nc3cc(-c4nnc(SCC(=O)Nc5ccc(C(=O)/C=C/c6ccc(Cl)cc6)cc5)o4)ccc3[nH]2)cc1OC [Compound 7q]" recorded_endpoint="inhibition at 10 µM" endpoint_result=8.1%
compound="O=C(CSc1nnc(-c2ccc3[nH]c(-c4ccc(Cl)cc4)nc3c2)o1)Nc1ccc(C(=O)/C=C/c2ccccc2)cc1 [Compound 7f]" recorded_endpoint="inhibition at 10 µM" endpoint_result=0%
compound="COc1ccc(/C=C/C(=O)c2ccc(NC(=O)CSc3nnc(-c4ccc5[nH]c(-c6ccc(Cl)cc6)nc5c4)o3)cc2)cc1 [Compound 7h]" recorded_endpoint="inhibition at 10 µM" endpoint_result=4.69%

Form field: reported inhibition at 10 µM of COc1ccc(-c2nc3cc(-c4nnc(SCC(=O)Nc5ccc(C(=O)/C=C/c6ccccc6)cc5)o4)ccc3[nH]2)cc1OC [Compound 7p] 3.63%

Cool, now COc1ccc(/C=C/C(=O)c2ccc(NC(=O)CSc3nnc(-c4ccc5[nH]c(-c6ccc(OC)c(OC)c6)nc5c4)o3)cc2)cc1 [Compound 7r] 2.07%

---

System: HT-29
Assay: Propidium iodide anti-proliferative assay
Assay type: cell-based
Details: Homo sapiens, 48 h incubation, read-out: IC50 ± SEM HT-29
Description: The propidium iodide (PI) tests^31, 32 were further used for assessment of the IC50 of all synthesized compounds and compared to Doxorubicin as a positive control against four cancer cell lines; pancreatic cancer cell line (Panc-1), epithelial line cancer cell (A-549), breast cancer cell line (MCF-7), and colon cancer cell line (HT-29). […] Where ATC= Absorbance of treated cells and AC= Absorbance of control. […]
Recorded endpoint: IC50 (µM)
Write down the numeric answer in µM and omit the unit.

Would you please look over these solved cases?
smiles_str=COc1ccc(-c2nc3cc(-c4nnc(SCC(=O)Nc5ccc(C(=O)/C=C/c6ccccc6)cc5)o4)ccc3[nH]2)cc1OC assayed_system=HT-29 endpoint_result=3.3
smiles_str=COc1ccc(-c2nc3cc(-c4nnc(SCC(=O)Nc5ccc(C(=O)/C=C/c6cc(OC)c(OC)c(OC)c6)cc5)o4)ccc3[nH]2)cc1OC assayed_system=HT-29 endpoint_result=10.8
smiles_str=COc1ccc(-c2nc3cc(-c4nnc(SCC(=O)Nc5ccc(C(=O)/C=C/c6ccc(Cl)cc6)cc5)o4)ccc3[nH]2)cc1 assayed_system=HT-29 endpoint_result=1.65

Form field: reported IC50 of `COc1cc(-c2nc3cc(-c4nnc(SCC(=O)Nc5ccc(C(=O)/C=C/c6ccc(Cl)cc6)cc5)o4)ccc3[nH]2)cc(OC)c1OC` 2.9

Cool, now `COc1ccc(/C=C/C(=O)c2ccc(NC(=O)CSc3nnc(-c4ccc5[nH]c(-c6ccc(OC)c(OC)c6)nc5c4)o3)cc2)cc1OC` 4.55

Cool, now `COc1ccc(/C=C/C(=O)c2ccc(NC(=O)CSc3nnc(-c4ccc5[nH]c(-c6ccccc6)nc5c4)o3)cc2)cc1` 5.5
